Field: IC50. Provide a value for each of the compounds that follow.
Biological target: Wee1 kinase domain (Homo sapiens)
Construct: Wee1 kinase domain was purchased from Carna (catalog #05-177); purchased Carna 05-177
Assay: Wee1 Kinase Biochemical Assay (ADP-Glo)
Settings: Wee1 kinase domain, 15 uM ATP, ADP-Glo

{"columns": ["compound", "targetSystem", "IC50"],
 "data": [
  ["CNCc1cccc(N2c3nc(Nc4ccc(N5CCC(F)(F)C5)cc4)ncc3[C@]3(C)COC(C)(C)C[C@H]23)n1 (single isomer, unassigned)", "Wee1 kinase domain (Homo sapiens)", "100 to 1000 nM"],
  ["C[C@H]1COC(=O)N1c1cccc(N2c3nc(Nc4cn(C5CCN(C)CC5)nn4)ncc3[C@@]3(C)COC(C)(C)C[C@@H]23)n1 (single isomer, unassigned)", "Wee1 kinase domain (Homo sapiens)", "< 10 nM"],
  ["CC1(C)C[C@@H]2N(c3cccc(N=S(C)(C)=O)n3)c3nc(Nc4cnn(C5CCOCC5)c4)ncc3[C@]2(C)CO1 (single isomer, unassigned)", "Wee1 kinase domain (Homo sapiens)", "100 to 1000 nM"]
]}

Below are 2 compounds. Give each one its IC50.
1. C[C@H]1COC(=O)N1c1cccc(N2c3nc(Nc4ccc([C@@H]5CCN(C)C5)nc4)ncc3[C@]3(C)COC(C)(C)C[C@H]23)n1 (single isomer, unassigned)
2. CN1C[C@H]2C[C@@H]1CN2c1ccc(Nc2ncc3c(n2)N(c2cccc(N=S(C)(C)=O)n2)[C@H]2CC(C)(C)OC[C@@]32C)cc1F (single isomer, unassigned)

Reply |
1. 10 to 100 nM
2. 100 to 1000 nM

====

Could you please report measured IC50 for the items listed next?
Molecular target: Wee1 kinase domain (Homo sapiens)
Construct: Wee1 kinase domain was purchased from Carna (catalog #05-177); purchased Carna 05-177
Test: Wee1 Kinase Biochemical Assay (ADP-Glo)
Settings: class symbols; 1 nM Wee1 enzyme, 15 uM ATP, 4 hours at 25° C.

Each compound below has a recorded value; state its IC50.
1. CN1CCC(c2cncc(Nc3ncc4c(n3)N(c3cccc(N=S(C)(C)=O)n3)[C@@H]3CC(C)(C)OC[C@]43C)c2)CC1 (single isomer, unassigned) [Example 485]
2. CN(C)Cc1cccc(N2c3nc(Nc4ccc(N5CCOCC5)cc4)ncc3[C@@]3(C)COC(C)(C)C[C@@H]23)n1 (single isomer, unassigned) [Example 523]
3. CN1CC2(C1)CN(c1ccc(Nc3ncc4c(n3)N(c3cccc(N5C(=O)CCC5(C)C)n3)[C@@H]3CC(C)(C)OC[C@]43C)cc1)C2 (single isomer, unassigned) [Example 786]
4. C[C@H]1COC(=O)N1c1cccc(N2c3nc(Nc4ccn(C5CCOCC5)c(=O)c4)ncc3[C@@]3(C)COC(C)(C)C[C@@H]23)n1 (single isomer, unassigned) [Example 781]
5. CC1(C)C[C@H]2N(c3cccc(N=S(C)(C)=O)n3)c3nc(Nc4ccnnc4)ncc3[C@@]2(C)CO1 (single isomer, unassigned) [Example 799]

Reply |
["< 10 nM", "< 10 nM", "< 10 nM", "< 10 nM", "< 10 nM"]

====

Molecular target: Wee1 kinase domain (Homo sapiens, UniProt P30291)
Construct: Wee1 kinase domain was purchased from Carna (catalog #05-177); purchased Carna 05-177
Sequence (P30291 299-569 limits assumed): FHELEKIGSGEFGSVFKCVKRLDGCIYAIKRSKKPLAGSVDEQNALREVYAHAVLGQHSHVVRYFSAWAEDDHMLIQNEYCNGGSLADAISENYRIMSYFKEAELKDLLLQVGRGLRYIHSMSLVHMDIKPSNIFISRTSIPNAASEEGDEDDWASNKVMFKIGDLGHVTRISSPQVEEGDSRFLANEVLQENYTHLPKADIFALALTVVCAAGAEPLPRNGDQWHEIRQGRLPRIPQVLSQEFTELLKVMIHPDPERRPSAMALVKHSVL
Test: Wee1 Kinase Biochemical Assay (ADP-Glo)
Conditions: Wee1 kinase domain, 15 uM ATP, ADP-Glo
Would you mind telling me the reported IC50 of each entry?

Consider the reported IC50 for these molecules:
{"columns": ["molecule", "IC50"],
 "data": [
  ["C[C@H]1COC(=O)N1c1cccc(N2c3nc(Nc4ccc(O[C@H]5CCNC5)cc4)ncc3[C@@]3(C)COC(C)(C)C[C@@H]23)n1 (single isomer, unassigned)", "< 10 nM"],
  ["CC1(C)C[C@@H]2N(c3cccc(N=S(C)(C)=O)n3)c3nc(Nc4ccc(C5CNC5)cc4)ncc3[C@]2(C)CO1 (single isomer, unassigned)", "10 to 100 nM"]
]}

Turning now to a further record.
Ask | # query: IC50 of entry Cn1nc(Nc2ncc3c(n2)N(c2cccc(N=S(C)(C)=O)n2)[C@@H]2CC(C)(C)OC[C@]32C)ccc1=O (single isomer, unassigned)
Reply | < 10 nM

====

Task for the reader: assign each of the following compounds its reported IC50.
Biological target: Wee1 kinase domain (Homo sapiens, UniProt P30291)
Construct: Wee1 kinase domain was purchased from Carna (catalog #05-177); purchased Carna 05-177
Experiment: Wee1 Kinase Biochemical Assay (ADP-Glo)
Conditions: class symbols; 1 nM Wee1 enzyme, 15 uM ATP, 4 hours at 25° C.

Worked examples follow.
{"columns": ["compound", "targetSystem", "IC50"],
 "data": [
  ["Cn1cc([C@H]2C[C@@H]2C(=O)Nc2ncc3c(n2)N(c2cccc(N=S(C)(C)=O)n2)[C@@H]2CC(C)(C)OC[C@]32C)cn1 (single isomer, unassigned)", "Wee1 kinase domain (Homo sapiens, UniProt P30291)", "< 0.01 µM"],
  ["CN1[C@@H]2C[C@H]1CN(c1ccc(Nc3ncc4c(n3)N(c3cccc(N5CCOC5=O)n3)[C@H]3CC(C)(C)OC[C@@]43C)cc1)C2", "Wee1 kinase domain (Homo sapiens, UniProt P30291)", "0.01 to 0.1 µM"],
  ["CN1CC[C@H]2CN(c3ccc(Nc4ncc5c(n4)N(c4cccc(N6CCCC6=O)n4)[C@H]4CC(C)(C)OC[C@@]54C)cc3)C[C@H]21", "Wee1 kinase domain (Homo sapiens, UniProt P30291)", "0.1 to 1 µM"],
  ["CN[C@]1(C)CCc2ccc(N3c4nc(Nc5ccc(N6CCOCC6)cc5)ncc4[C@]4(C)COC(C)(C)C[C@H]34)nc21 (single isomer, unassigned)", "Wee1 kinase domain (Homo sapiens, UniProt P30291)", "0.1 to 1 µM"],
  ["CN1CC[C@H](Oc2ccc(Nc3ncc4c(n3)N(c3cccc(C(C)(C)O)n3)[C@@H]3CC(C)(C)OC[C@]43C)cc2)C1 (single isomer, unassigned)", "Wee1 kinase domain (Homo sapiens, UniProt P30291)", "< 0.01 µM"],
  ["CNC1(c2cccc(N3c4nc(Nc5ccc(N6CCOCC6)cc5)ncc4[C@]4(C)COC(C)(C)C[C@H]34)n2)CC1 (single isomer, unassigned)", "Wee1 kinase domain (Homo sapiens, UniProt P30291)", "0.1 to 1 µM"],
  ["CC[C@]1(O)CCc2ccc(N3c4nc(Nc5ccn(C6CCN(C)CC6)c(=O)c5)ncc4[C@@]4(C)COC(C)(C)C[C@@H]34)nc21", "Wee1 kinase domain (Homo sapiens, UniProt P30291)", "< 0.01 µM"],
  ["CN[C@H]1CCc2ccc(N3c4nc(Nc5ccc(N6CCOCC6)cc5)ncc4[C@@]4(C)COC(C)(C)C[C@@H]34)nc21 (single isomer, unassigned)", "Wee1 kinase domain (Homo sapiens, UniProt P30291)", "0.1 to 1 µM"]
]}

Take each entry in turn and give its IC50.
1. CNCc1ccnc(N2c3nc(Nc4ccc(N5CCOCC5)cc4)ncc3[C@@]3(C)COC(C)(C)C[C@@H]23)c1 (single isomer, unassigned)
2. CN1C[C@H]2C[C@@H]1CN2c1ccc(Nc2ncc3c(n2)N(c2cccc(C(C)(C)O)n2)[C@@H]2CC(C)(C)OC[C@]32C)cc1F (single isomer, unassigned)
3. C[C@H]1CCC(=O)N1c1cccc(N2c3nc(Nc4ccc(N5C[C@@H]6C[C@H]5CN6C)cc4)ncc3[C@@]3(C)COC(C)(C)C[C@@H]23)n1

Reply |
["0.01 to 0.1 µM", "< 0.01 µM", "< 0.01 µM"]

====

Test system: phosphorylation of Cdc2 Y15 (Wee1 substrate) in A427 cells
Experiment: Phosphorylated Cdc2 MSD Electrochemiluminescence Assay
Type: cell-based
Settings: Homo sapiens, A-427, pCDC2 MSD
pIC50: −log10 of the molar value.
endpointName: pIC50

Sample records with pIC50:
{"columns": ["compound", "pIC50"],
 "data": [
  ["CN1CCC[C@H]1c1ccc(Nc2ncc3c(n2)N(c2cccc(N=S(C)(C)=O)n2)[C@@H]2CC(C)(C)OC[C@]32C)cc1 (single isomer, unassigned)", "> 7.00"],
  ["CC1(C)C[C@H]2N(c3cccc(N=S(C)(C)=O)n3)c3nc(Nc4ccc([C@H]5CCNC5)cc4)ncc3[C@@]2(C)CO1 (single isomer, unassigned)", "> 7.00"],
  ["CN1CC(c2ccc(Nc3ncc4c(n3)N(c3cccc(N=S(C)(C)=O)n3)[C@@H]3CC(C)(C)OC[C@]43C)cc2F)C1 (single isomer, unassigned)", "> 7.00"]
]}

Give me pIC50 for each of these compounds, listed below.
1. CC1(C)C[C@H]2N(c3cccc(N=S(C)(C)=O)n3)c3nc(Nc4ccc(C5CNC5)cc4)ncc3[C@@]2(C)CO1 (single isomer, unassigned)
2. C[C@H]1COC(=O)N1c1cccc(N2c3nc(Nc4ccc(O[C@H]5CCN(C)C5)cc4)ncc3[C@@]3(C)COC(C)(C)C[C@@H]23)n1 (single isomer, unassigned)

Reply |
["> 7.00", "6.00 to 7.00"]

Would you be so kind as to report pIC50 for each listed record?
1. CC1(C)C[C@H]2N(c3cccc(N=S(C)(C)=O)n3)c3nc(Nc4ccn(C5CCOCC5)c(=O)c4)ncc3[C@@]2(C)CO1 (single isomer, unassigned)
2. C[C@H]1COC(=O)N1c1cccc(N2c3nc(Nc4ccn(C5CCN(C)CC5)c(=O)c4)ncc3[C@@]3(C)COC(C)(C)C[C@@H]23)n1 (single isomer, unassigned)
3. Cc1cc(Nc2ncc3c(n2)N(c2cccc(N4C(=O)OC[C@@H]4C)n2)[C@@H]2CC(C)(C)OC[C@]32C)ccc1[C@H]1CCNC1 (single isomer, unassigned)
4. CNCc1cccc(N2c3nc(Nc4ccn([C@H]5CCOC5)c(=O)c4)ncc3[C@@]3(C)COC(C)(C)C[C@@H]23)n1 (single isomer, unassigned)
5. C[C@H]1COC(=O)N1c1cccc(N2c3nc(Nc4ccc(C5CNC5)cc4)ncc3[C@@]3(C)COC(C)(C)C[C@@H]23)n1 (single isomer, unassigned)

Reply |
6.00 to 7.00
6.00 to 7.00
6.00 to 7.00
5.00 to 6.00
6.00 to 7.00

Below are some compounds; for each one, tell me its pIC50.
1. Cc1cc(Nc2ncc3c(n2)N(c2cccc(N=S(C)(C)=O)n2)[C@@H]2CC(C)(C)OC[C@]32C)ccc1[C@H]1CCNC1 (single isomer, unassigned)
2. CNCc1cccc(N2c3nc(Nc4ccc(N5CCC(F)(F)CC5)cc4)ncc3[C@@]3(C)COC(C)(C)C[C@@H]23)n1 (single isomer, unassigned)
3. CN1Cc2cc(Nc3ncc4c(n3)N(c3cccc(N=S(C)(C)=O)n3)[C@@H]3CC(C)(C)OC[C@]43C)cnc2C1 (single isomer, unassigned)
4. CC1(C)C[C@H]2N(c3cccc(N=S(C)(C)=O)n3)c3nc(Nc4ccc([C@]5(C)CCNC5)cc4)ncc3[C@@]2(C)CO1 (single isomer, unassigned)
5. CN1CC[C@@](C)(c2ccc(Nc3ncc4c(n3)N(c3cccc(N=S(C)(C)=O)n3)[C@@H]3CC(C)(C)OC[C@]43C)cc2)C1 (single isomer, unassigned)

Reply |
1: 6.00 to 7.00; 2: 6.00 to 7.00; 3: > 7.00; 4: 6.00 to 7.00; 5: > 7.00

Report pIC50 for every entry below.
1. CC1(C)C[C@H]2N(c3cccc(N=S(C)(C)=O)n3)c3nc(Nc4ccn([C@H]5CCOC5)c(=O)c4)ncc3[C@@]2(C)CO1 (single isomer, unassigned)
2. CNCc1cccc(N2c3nc(Nc4ccc(N5CCC(F)(F)C5)cc4)ncc3[C@@]3(C)COC(C)(C)C[C@@H]23)n1 (single isomer, unassigned)
3. C[C@H]1COC(=O)N1c1cccc(N2c3nc(Nc4cnn(C5CCNCC5)c4)ncc3[C@@]3(C)COC(C)(C)C[C@@H]23)n1 (single isomer, unassigned)
4. CN1CCC[C@H](n2cc(Nc3ncc4c(n3)N(c3cccc(N=S(C)(C)=O)n3)[C@@H]3CC(C)(C)OC[C@]43C)cn2)C1 (single isomer, unassigned)
5. CN1CC[C@@H](Oc2ccc(Nc3ncc4c(n3)N(c3cccc(N=S(C)(C)=O)n3)[C@@H]3CC(C)(C)OC[C@]43C)cc2)C1 (single isomer, unassigned)
6. CC1(C)C[C@H]2N(c3cccc(N=S(C)(C)=O)n3)c3nc(Nc4ccc(C5CNC5)nc4)ncc3[C@@]2(C)CO1 (single isomer, unassigned)

Reply |
["6.00 to 7.00", "6.00 to 7.00", "6.00 to 7.00", "6.00 to 7.00", "> 7.00", "6.00 to 7.00"]
